Tested on: Nicotiana benthamiana phytoene desaturase
method.summary: Topical oligonucleotides/polynucleotides on tobacco, PDS bleaching and chlorophyll (Example 10)
Format: in vivo
test.conditions: topical treatment
Description: The following procedure was used for all assays described in this example. Four-week old Nicotiana benthamiana plants were used in all assays. Plants were treated with 0.1% Silwet L-77 solution freshly made with ddH2O. Two fully expanded leaves per plant (one cotyledon, one true leaf) were dipped into the Silwet L-77 solution for a few seconds, and allowed to dry for 15-30 minutes before application of the polynucleotide composition. […]
quantity: bleaching of apical leaves (FIG. 14)

| substance | result |
| --- | --- |
| Oligo 3 without T7 promoter: SEQ ID NOs 22, 23; PDS anti-sense 22-mer oligonucleotides without a T7 promoter (antisense 1 CATCTCCTTTAATTGTACTGCC; antisense 2 TTTAATTGTACTGCCATTATTC; listed as DNA, chemistry not given here) | Strong bleaching |
| PDS 33-mer anti-sense ssDNA: SEQ ID NO:35 (antisense CATCTCCTTTAATTGTACTGCCATTATTCAGTA; DNA, backbone not given here) | Strong bleaching |
| PDS 21-mer anti-sense ssDNA: SEQ ID NO:34 (antisense CATCTCCTTTAATTGTACTGC; DNA, backbone not given here) | Strong bleaching |

* * *

Test system: glyphosate-resistant Palmer amaranth plants
method.summary: Salts, EDTA, glycerin as additives to polynucleotide spray solutions (Example 35, Tables 26-28)
Assay type: in vivo
test.conditions: 2% salt as additive to 1% Silwet L-77 spray solution of topically applied polynucleotides (RNA); glyphosate
quantity: Palmer height (cm)
Numbers only, in cm.

| compound | system.tested | unit.abbreviation | Palmer height (cm) |
| --- | --- | --- | --- |
| [Cl-].[Na+] [sodium chloride] | glyphosate-resistant Palmer amaranth plants | cm | 15.0 |
| CC[N+](CC)(CC)CC.[Cl-] [tetraethylammonium chloride] | glyphosate-resistant Palmer amaranth plants | cm | 12.0 |
| N.N.O=S(=O)(O)O [ammonium sulfate] | glyphosate-resistant Palmer amaranth plants | cm | 9.3 |

I have this compound here, Cl.N [ammonium chloride] , and I need its recorded Palmer height (cm).
10.3
